Sourced from patent US20230082968A1

Test system: P. aeruginosa strain K (PAK)
Experiment: Checkerboard assay of antibiotic combinations with COS/NO
Format: cell-based, Pseudomonas aeruginosa
Details: antibiotic in combination with COS/NO, 24 h
quantity.measured: ΣFIC (median fractional inhibitory concentration index)

Per the records, this molecule ( CC(C)(O/N=C(\C(=O)N[C@@H]1C(=O)N2C(C(=O)[O-])=C(C[n+]3ccccc3)CS[C@H]12)c1csc(N)n1)C(=O)O ) has ΣFIC (median fractional inhibitory concentration index) equal to 1

Per the records, this molecule ( C[C@@H](O)[C@H]1C(=O)N2C(C(=O)O)=C(S[C@@H]3CN[C@H](C(=O)N(C)C)C3)[C@H](C)[C@H]12 ) has ΣFIC (median fractional inhibitory concentration index) equal to 0.5

Per the records, this molecule ( C[C@H]1[C@H](NC(=O)/C(=N\OC(C)(C)C(=O)O)c2csc(N)n2)C(=O)N1S(=O)(=O)O ) has ΣFIC (median fractional inhibitory concentration index) equal to 0.75

Per the records, this molecule ( NC[C@H]1O[C@H](O[C@H]2[C@H](O)[C@@H](O[C@H]3O[C@H](CO)[C@@H](O)[C@H](N)[C@H]3O)[C@H](N)C[C@@H]2N)[C@H](N)C[C@@H]1O ) has ΣFIC (median fractional inhibitory concentration index) equal to 0.625
